- test_description: NCI Yeast Anticancer Drug Screen. Data for the cln2 rad14 strain (AID 165);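 also: 0% = growth equal to vehicle treated cultures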
- experimental_setup: S. cerevisiae cln2 rad14 strain, at 50.0 µM, stronger effect = higher value
About 79,000 compounds went through this panel and 15% of them were active in at least one assay; those are over-represented in the sample as a whole. Active and inactive are the calls of the source. Rule as the data show it: active = growth inhibition above about 70%; inactive = the rest.
quantity_kind: growth inhibition

Value of measured growth inhibition for the entry CC1(C)CC2(CC3(C1)SCCS3)SCCS2 : 5.45% (inactive)

Record N#CCCNCCNCCC#N . Reported growth inhibition: -68.2% (inactive)

For this compound ( NC(=O)N1CCCC1 ), measured growth inhibition is 7.7% (inactive)

Input C[N+](C)(C)CCc1ccccc1 . Output growth inhibition: -26.4% (inactive)

Entry O=C(c1ccc(F)cc1)C1CCC1 — recorded growth inhibition = 18.1% (inactive)

The compound N#CCCN(C1=NN(C(=O)CC(=O)Nc2ccc(Cl)cc2)C(c2ccccc2)C1)c1ccc(Cl)cc1 (centres undefined) showed growth inhibition equal to 10.7% (inactive)

What the record says about N#CC(C(=O)C(=O)Nc1cccc(C(F)(F)F)c1)c1c(Cl)cccc1Cl (centres undefined) : growth inhibition is -35% (inactive)

Notebook: COC(=O)C1C(O)CCC2CN3CCc4c([nH]c5cccc(OC)c45)C3CC21 (centres undefined) , growth inhibition read as 7.85% (inactive)

According to the records, this compound COc1cc(CNC(=O)NCCCl)cc(OC)c1OC displays growth inhibition of -3.45% (inactive)

###

- test_description: NCI Yeast Anticancer Drug Screen. Data for the bub3 strain (AID 167)
- experimental_setup: S. cerevisiae bub3 mutant strain, at 50.0 µM, stronger effect = higher value
About 79,000 compounds went through this panel and 15% of them were active in at least one assay; those are over-represented in the sample as a whole.
Consider the following compounds; for each one, report its growth inhibition.
Just the number in %, nothing appended.

COc1cc(NC(C)CCCN)c2nccc(C)c2c1 (stereo not drawn) yielded growth inhibition of -62.5

response.value for C[n+]1cccc(C(=O)O)c1-c1ccccc1 (field: growth inhibition) = 4.55

// growth inhibition lookup, compound = CCC(CC)(C(=O)O)C(=O)O , result: 12.7

Lab note: C/C(=N/NC(N)=O)c1ccc([N+](=O)[O-])o1 gave growth inhibition of 14.9

Notebook: Cc1[nH]c(=O)n2c(C)nnc2c1C(=O)O , growth inhibition read as -2.7

Lookup result for O=C(/C=C/c1ccc([N+](=O)[O-])cc1)NN=C(c1ccccc1)c1ccccc1 ; measured growth inhibition: -9.5

growth inhibition recorded for this compound, COC(=O)c1c2c(cc3c1CC1(Cc4cc5c(cc4C1=O)CCC5)C3)CCC2 (stereo not drawn) , is 10.8

Briefly, growth inhibition measured for CCc1cccc(CC)c1N(C(C)=O)C(C)=O : 19.2

For reference, reported growth inhibition for COc1ccccc1C1CCCCC1SCC(=O)O (stereo not drawn) stands at 6.75

The recorded growth inhibition for CC(=O)NC1CCCCC1C1CCC([N+](=O)[O-])CC1 (stereo not drawn) is 6.9

Value of measured growth inhibition for the entry CC(=O)OCCCC(C)Nc1ccnc2cc(Cl)ccc12 (stereo not drawn) : -7.9

Lookup result for Cc1cc2c3ccccc3n(C)c2c2c1C(=O)C=CC2=O ; measured growth inhibition: -7.35

compound C[Si](C)(C)c1ccc(-c2ccccc2)cc1 , growth inhibition observed: 22.5

Cc1nc2ccc(Cl)c(Cl)c2s1 has a reported growth inhibition of 6.65

Field growth inhibition (entry C=C(C)C(O)C(O)C(=C)C (stereo not drawn) ) reads 12.9

// growth inhibition value for COc1ccc([N+](=O)[O-])cc1OC : 0.45

growth inhibition recorded for this compound, Cc1n[n+](Cc2ccccc2)c2sc(N)nn12 , is 26.9

Please fill in: growth inhibition reported for CC1(C)CC(C)(C)[P+]1(C)c1ccccc1 = 15.6

###

- test_description: NCI Yeast Anticancer Drug Screen. Data for the mec2-1 strain (AID 157)
- experimental_setup: S. cerevisiae mec2-1 strain, at 50.0 µM, stronger effect = higher value
The panel holds about 79,000 compounds, 15% with a hit somewhere; the sample as a whole holds those more often.
quantity_kind: growth inhibition (%)
A number alone suffices; assume %.

The reported value for O=C(O)NC(c1ccccc1)C(NC(=O)c1ccccc1)c1ccccc1 (stereo unspecified) in terms of growth inhibition is -4.1

For record CN(C)C(=S)N(C)C the listed growth inhibition is -33

Entry under test: COC(=O)CCCCCNC(=O)NCCCCCC(=O)OC . Its growth inhibition was -21

Record CCOC(=O)CC(=O)C(=O)NNC1=NCCN1 , field growth inhibition: 11.6

Entry O=S(=O)(O)CC(O)CSSCC(O)CS(=O)(=O)O (stereo unspecified) — recorded growth inhibition = -3.55

Entry Cc1nc2ccccc2[nH]1 ; growth inhibition = -31.1

growth inhibition recorded for this molecule, O=C(O)COc1ccccc1F , is 12.1

Memo: Cc1ccc2[nH]c(=S)n(CCc3ccccc3)c(=O)c2c1 , reported growth inhibition: -23

Kindly note the recorded growth inhibition for C=CCN1C(=O)c2ccccc2C1=O , which is -3.2

So for COc1cccc(-c2nc3ccccc3c(=O)[nH]2)c1OC , the logged growth inhibition turned out to be -16.6

The reported value for CC(=O)CC(=O)Nc1ccccc1[N+](=O)[O-] in terms of growth inhibition is -24.4

###

- test_description: NCI Yeast Anticancer Drug Screen. Data for the cln2 rad14 strain (AID 165);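 also: 0% = growth equal to vehicle treated cultures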
- experimental_setup: S. cerevisiae cln2 rad14 strain, at 50.0 µM, stronger effect = higher value
About 79,000 compounds went through this panel and 15% of them were active in at least one assay; those are over-represented in the sample as a whole.
Field: growth inhibition. Provide a value for each of the molecules that follow.
Value expressed in %; do not type the unit.

The molecule listed as CN(NC(=O)c1ccccc1)C(=O)c1ccccc1 shows growth inhibition equal to -15

// field: growth inhibition; key: CCc1ccccc1NC(=O)C(=O)C1C(=O)N(c2ccccc2)N=C1N (stereo unspecified) ; value = 21.4

Consider COC(=O)c1nsc(OC)c1Cl . Its measured growth inhibition is 8.7

growth inhibition recorded for this molecule, O=C1c2ccccc2-c2ccc(N=Cc3cccs3)cc21 , is 9.4

What the record says about CCOC(=O)c1csc(N)n1 : growth inhibition is -39.6

Sure, the documented growth inhibition for CC1C[C@]2(C)C(=NCCN)Nc3ccccc3[C@@H]2N(C)c2ccccc21 (stereo partly specified) is -28.6

###

- test_description: NCI Yeast Anticancer Drug Screen. Data for the mlh1 rad18 strain (AID 175)
- experimental_setup: S. cerevisiae mlh1 rad18 strain growth inhibition; at 50.0 µM; stronger effect = higher value
This is part of a sample that, as a whole, favours compounds with a hit. Of some 79,000 tested, about 15% had one in any assay.
quantity_kind: growth inhibition (%)
Respond numerically; units are % and should not be typed.

Entry Cc1c(C)c(C)c2cc3c(C)c(C)c(C)c(C)c3cc2c1C ; growth inhibition = -11.6

For reference, reported growth inhibition for CN1CN(C(=O)N2CN(C)C(=O)N(C)C2)CN(C)C1=O stands at -37.4

Noted for O=C(O)CCCc1ccc2c(c1)-c1ccccc1S2=O (centres undefined) : its growth inhibition reads 13.1

Sample COc1ccc(N(N=Nc2ccccc2)C(C)=O)cc1 ; growth inhibition observed: 11.9

Memo: Cc1[nH]nc2c1NC(=O)OC2 , reported growth inhibition: 2.45

# growth inhibition of COc1cc(Cc2cc(OC)c(OC)c(OC)c2)ccc1O = 9.5

// growth inhibition value for O=C(CBr)Nc1ccccc1[N+](=O)[O-] : -5.4

CCN(CC)CCSCCSCCN(CC)CC has a reported growth inhibition of -10.3

Notebook: CCN(C)c1ccccc1 , growth inhibition read as 11.2

Noted for O=C(CC(C(=O)c1ccsc1)c1cccs1)c1cccs1 (centres undefined) : its growth inhibition reads 33.8

# growth inhibition of Cc1cc(=NO)cc(C)n1O = 7.85

So, N#Cc1c(-c2ccc([N+](=O)[O-])cc2)c(C#N)c(=O)n(NS(=O)(=O)c2ccccc2)c1-c1ccccc1 ? Its growth inhibition was 26.4

For this compound ( CCOc1ccc(N=Nc2c(O)n(-c3ccc(Br)cc3)c(=S)n(-c3ccc(OC)cc3)c2=O)cc1 ), measured growth inhibition is 2.3

Per the records, this compound ( CC1(CCOCc2ccccc2)NC(=O)N(CCC#N)C1=O (centres undefined) ) has growth inhibition equal to 12.6

The reported growth inhibition of the compound CCO/C=C1/C(=O)N(C)c2c1c(=O)n(C)c(=O)n2C was -5.15

Record Cc1c(C(=O)OCCCl)c(=O)n(-c2ccccc2)n1C , field growth inhibition: -0.55

Value of measured growth inhibition for the entry CCC(CO)Nc1nc2c(Cl)cc(Cl)cc2c2ccccc12 (centres undefined) : 41.2

growth inhibition reported for this compound CCCCNCC1COc2cccc(OCC)c2O1 (centres undefined) : 4

Item: CCCOC(C)OCCC#CCC(C)OC(=O)CC(Cl)(Cl)Cl (centres undefined) | growth inhibition: -9.35

growth inhibition for COC(=O)c1sc2ccccc2c1C is 10.7

For record COc1cccc(C(OC(=O)c2ccccc2)c2nncc3ccccc23)c1OC (centres undefined) the listed growth inhibition is 5.8

# growth inhibition (compound: C(=N\OCCc1ccccc1)/c1ccccn1 ) is 4

Reported growth inhibition for CC(=O)c1cccc(NC(=O)Oc2ccc(C(=O)OCc3ccccc3)cc2)c1 was 92.9

So, CC(C)N(C(=S)/N=C1/SC(C)S(=O)(=O)N1C)C(C)C (centres undefined) ? Its growth inhibition was 5.45

Just so you know, measured growth inhibition for CC(=O)Oc1cc(C)c(OC(C)=O)c(C)c1C came out at 6.3

For record C=C(C)C(=O)NC(Cc1cnc[nH]1)C(=O)O (centres undefined) the listed growth inhibition is 0.55

growth inhibition measured on CCOC(=O)c1ccc(N2C(=O)C(Cl)(c3ccccc3)C2c2ccco2)cc1 (centres undefined) = 10.5

growth inhibition reading for CCOC(=O)Cn1c(=O)c2nc(SC)sc2n(CC)c1=S : 4

The compound identified as O=[N+]([O-])c1ccc(CSc2ncnc3c2ncn3C2OC(CO)C(O)C2O)cc1 (centres undefined) registered its growth inhibition at -17.4

Documented growth inhibition of CCCCc1c2c(nc3c1CCCC3=O)CCCC2 : -0.8

Query Cc1ccc(N2C(=O)CC3(CCCC3)C2=O)cc1Cl yields growth inhibition of 21.6

Query CC(C)(C)c1ccc(O)c(C(O)c2cccnc2)c1 (centres undefined) yields growth inhibition of 39.2

Note to self: growth inhibition recorded for CN(C)/N=C\c1ccc(C(=O)O)cc1 was 22.9

Memo: CCCNC(=O)/C=C\S(=O)CCC (centres undefined) , reported growth inhibition: -2.6

The compound identified as O=C1CC2CCC(C1)S2 registered its growth inhibition at -33

Entry CCCCNC(=O)OCCN=c1c2ccccc2ccc2ccccc12 , growth inhibition reported as -15.4

// growth inhibition value for OC(CNc1ccc(Cl)nn1)c1ccccc1 (centres undefined) : -15.2

For record CCn1c2ccc(N(C)C)cc2c2cc(N(C)C)ccc21 the listed growth inhibition is -52.4

# growth inhibition (compound: Cc1ccc(N)cc1S(=O)(=O)O ) is 21.6

The compound identified as Cc1ccc(S(=O)c2ccccc2C(O)(C(F)(F)F)C(F)(F)F)cc1 (centres undefined) registered its growth inhibition at 75.7

Recorded result, c1ccc2c(c1)SCCCSCCCS2 , growth inhibition: -11.4

Sure, the documented growth inhibition for Clc1ccccc1-c1nc(-c2ccncc2)no1 is 34

In plain terms, CCOc1c2c(nn(C)c1=O)Oc1ccccc1N2CCCN1CCOCC1 has a documented growth inhibition of -4.6

get_value(item= COc1ccc2nccc(Cl)c2c1 , readout=growth inhibition) returns 6.45
